# testedOn: 6HIS-Tev-LRRK2 (1326-2527) (Homo sapiens, UniProt Q5S007)
# Construct: A LRRK2 cDNA encoding residues 1326-2527 was received from Dundee University; made in house; host or cells: Spodoptera frugiperda Sf9 (baculovirus, pFB-HTb)
# Sequence (Q5S007 1326-2527): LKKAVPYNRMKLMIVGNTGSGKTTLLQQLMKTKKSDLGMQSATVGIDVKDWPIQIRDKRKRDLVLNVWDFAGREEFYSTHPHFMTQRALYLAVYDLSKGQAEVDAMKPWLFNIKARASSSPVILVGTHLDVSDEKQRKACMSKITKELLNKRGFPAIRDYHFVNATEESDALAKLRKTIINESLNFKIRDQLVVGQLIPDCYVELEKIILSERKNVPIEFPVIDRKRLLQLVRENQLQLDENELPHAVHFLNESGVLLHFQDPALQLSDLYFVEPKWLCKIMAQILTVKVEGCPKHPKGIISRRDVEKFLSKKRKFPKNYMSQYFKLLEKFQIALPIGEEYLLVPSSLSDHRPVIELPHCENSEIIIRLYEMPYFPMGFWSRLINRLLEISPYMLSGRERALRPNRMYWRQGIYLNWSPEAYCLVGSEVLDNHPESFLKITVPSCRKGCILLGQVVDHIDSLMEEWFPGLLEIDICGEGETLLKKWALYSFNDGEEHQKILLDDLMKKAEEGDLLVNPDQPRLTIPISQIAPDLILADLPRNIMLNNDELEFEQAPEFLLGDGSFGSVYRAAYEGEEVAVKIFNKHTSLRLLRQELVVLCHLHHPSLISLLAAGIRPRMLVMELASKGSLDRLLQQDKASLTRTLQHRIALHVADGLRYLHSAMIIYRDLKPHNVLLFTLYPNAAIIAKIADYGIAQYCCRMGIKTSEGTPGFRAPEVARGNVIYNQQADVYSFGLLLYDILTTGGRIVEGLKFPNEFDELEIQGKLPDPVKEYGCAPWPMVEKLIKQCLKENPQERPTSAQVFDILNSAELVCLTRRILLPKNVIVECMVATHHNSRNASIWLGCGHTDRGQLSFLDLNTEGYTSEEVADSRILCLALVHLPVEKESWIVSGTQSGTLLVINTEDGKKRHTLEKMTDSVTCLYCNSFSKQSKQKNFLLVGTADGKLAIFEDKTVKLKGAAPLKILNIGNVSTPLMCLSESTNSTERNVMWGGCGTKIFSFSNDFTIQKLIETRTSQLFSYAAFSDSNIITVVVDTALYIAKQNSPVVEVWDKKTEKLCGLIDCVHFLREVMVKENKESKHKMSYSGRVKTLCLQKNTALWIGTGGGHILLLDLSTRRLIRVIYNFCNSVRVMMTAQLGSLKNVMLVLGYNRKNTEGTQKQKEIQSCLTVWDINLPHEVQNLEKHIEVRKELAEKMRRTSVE
# assaySummary: LRRK2 Inhibition Mass Spectrometry Assay
# Format: biochemical
# measurementContext: 60 nM LRRK2 enzyme; 25 uM LRRKtide; 20 uM ATP; read-out: LRRK2 Inhibition Mass Spectrometry Assay (pIC50) (converted)
measuredProperty: IC50
Please state the value followed by its unit.

Returns the measured IC50 for the input compound. Input: CCOc1nc(Nc2cnn(C3CCOCC3C)c2C)nc2[nH]ccc12 (single isomer, unassigned) [Example E113]
10 nM

Then this compound: CCOc1nc(Nc2cnn(C3CCN(C4COC4)CC3(F)F)c2Cl)nc2[nH]ccc12 (single isomer, unassigned) [Example E134]
7.94 nM

Then this compound: CCOc1nc(Nc2cnn(C3CN(C)CCC3(F)F)c2C)nc2[nH]ccc12 (single isomer, unassigned) [Example E121]
10 nM

Then this compound: CCOc1nc(Nc2cnn([C@H]3CCN(C4COC4)C[C@@H]3F)c2Cl)nc2[nH]ccc12 (single isomer, unassigned) [Example E104]
7.94 nM

Then this compound: CCOc1nc(Nc2cnn(C3CN(C4COC4)CCO3)c2Cl)nc2[nH]ccc12 (single isomer, unassigned) [Example E141]
7.94 nM

Then this compound: CCOc1nc(Nc2cnn(C3CN(C4COC4)CCC3(F)F)c2Cl)nc2[nH]ccc12 (single isomer, unassigned) [Example E124]
10 nM

---

# testedOn: 6HIS-Tev-LRRK2 (1326-2527) (Homo sapiens, UniProt Q5S007)
# Construct: A LRRK2 cDNA encoding residues 1326-2527 was received from Dundee University; made in house; host or cells: Spodoptera frugiperda Sf9 (baculovirus, pFB-HTb)
# assaySummary: LRRK2 Inhibition Mass Spectrometry Assay
# Format: biochemical
# measurementContext: 60 nM LRRK2 enzyme; 25 uM LRRKtide; 20 uM ATP; read-out: LRRK2 Inhibition Mass Spectrometry Assay (pIC50) (converted)
measuredProperty: IC50 (nM)
The answer is to be given in nM; state only the numeric part.

Returns the measured IC50 for the input compound. Input: CCOc1nc(Nc2cnn(CCN3CCO[C@H](C(F)F)C3)c2C)nc2[nH]ccc12 [Example E100]
7.94

Then this compound: CCOc1nc(Nc2cnn(C3CC(N4CCOCC4)C3)c2C)nc2[nH]ccc12 (stereo not drawn) [Example E86]
10

Then this compound: CCOc1nc(Nc2cnn([C@@H]3CCN(C4COC4)C[C@H]3F)c2Cl)nc2[nH]ccc12 (single isomer, unassigned) [Example E105]
7.94

---

# testedOn: 6HIS-Tev-LRRK2 (1326-2527) (Homo sapiens, UniProt Q5S007)
# Construct: A LRRK2 cDNA encoding residues 1326-2527 was received from Dundee University; made in house; host or cells: Spodoptera frugiperda Sf9 (baculovirus, pFB-HTb)
# assaySummary: Recombinant LRRK2 enzyme peptide substrate TR-FRET assay
# Format: biochemical
# measurementContext: 60 nM LRRK2 enzyme; 1 uM Biotin-longer LRRKtide; 10 uM ATP; read-out: recombinant LRRK2 enzyme peptide substrate TR-FRET assay (pIC50) (converted)
Field: IC50. Provide a value for each of the compounds that follow.
Please state the value followed by its unit.

Returns the measured IC50 for the input compound. Input: `CCOc1nc(Nc2cnn(CCN3CCOCC3)c2C)nc2[nH]ccc12`
0.01 µM

Then this compound: CCOc1nc(Nc2cnn(C3CC(O)C3)c2C)nc2[nH]ccc12 (centres unmarked)
0.00794 µM

Then this compound: `CCOc1nc(Nc2cnn(CC(C)(C)O)c2C)nc2[nH]ccc12`
0.0126 µM

Then this compound: CCOc1nc(Nc2cnn(C3CCN(C)C3)c2C)nc2[nH]ccc12 (single isomer, unassigned)
0.0126 µM

Then this compound: `CCOc1nc(Nc2cnn(C3CCOCC3)c2C2CC2)nc2[nH]ccc12`
0.00794 µM

---

# testedOn: LRRK2 Ser935 phosphorylation in SH-SY5Y cells over-expressing recombinant full length LRRK2 (Homo sapiens, UniProt Q5S007)
# Construct: A BacMam virus expressing full length recombinant LRRK2 was purchased from Invitrogen; host or cells: SH-SY5Y (BacMam transduction)
# Sequence (Q5S007 whole entry): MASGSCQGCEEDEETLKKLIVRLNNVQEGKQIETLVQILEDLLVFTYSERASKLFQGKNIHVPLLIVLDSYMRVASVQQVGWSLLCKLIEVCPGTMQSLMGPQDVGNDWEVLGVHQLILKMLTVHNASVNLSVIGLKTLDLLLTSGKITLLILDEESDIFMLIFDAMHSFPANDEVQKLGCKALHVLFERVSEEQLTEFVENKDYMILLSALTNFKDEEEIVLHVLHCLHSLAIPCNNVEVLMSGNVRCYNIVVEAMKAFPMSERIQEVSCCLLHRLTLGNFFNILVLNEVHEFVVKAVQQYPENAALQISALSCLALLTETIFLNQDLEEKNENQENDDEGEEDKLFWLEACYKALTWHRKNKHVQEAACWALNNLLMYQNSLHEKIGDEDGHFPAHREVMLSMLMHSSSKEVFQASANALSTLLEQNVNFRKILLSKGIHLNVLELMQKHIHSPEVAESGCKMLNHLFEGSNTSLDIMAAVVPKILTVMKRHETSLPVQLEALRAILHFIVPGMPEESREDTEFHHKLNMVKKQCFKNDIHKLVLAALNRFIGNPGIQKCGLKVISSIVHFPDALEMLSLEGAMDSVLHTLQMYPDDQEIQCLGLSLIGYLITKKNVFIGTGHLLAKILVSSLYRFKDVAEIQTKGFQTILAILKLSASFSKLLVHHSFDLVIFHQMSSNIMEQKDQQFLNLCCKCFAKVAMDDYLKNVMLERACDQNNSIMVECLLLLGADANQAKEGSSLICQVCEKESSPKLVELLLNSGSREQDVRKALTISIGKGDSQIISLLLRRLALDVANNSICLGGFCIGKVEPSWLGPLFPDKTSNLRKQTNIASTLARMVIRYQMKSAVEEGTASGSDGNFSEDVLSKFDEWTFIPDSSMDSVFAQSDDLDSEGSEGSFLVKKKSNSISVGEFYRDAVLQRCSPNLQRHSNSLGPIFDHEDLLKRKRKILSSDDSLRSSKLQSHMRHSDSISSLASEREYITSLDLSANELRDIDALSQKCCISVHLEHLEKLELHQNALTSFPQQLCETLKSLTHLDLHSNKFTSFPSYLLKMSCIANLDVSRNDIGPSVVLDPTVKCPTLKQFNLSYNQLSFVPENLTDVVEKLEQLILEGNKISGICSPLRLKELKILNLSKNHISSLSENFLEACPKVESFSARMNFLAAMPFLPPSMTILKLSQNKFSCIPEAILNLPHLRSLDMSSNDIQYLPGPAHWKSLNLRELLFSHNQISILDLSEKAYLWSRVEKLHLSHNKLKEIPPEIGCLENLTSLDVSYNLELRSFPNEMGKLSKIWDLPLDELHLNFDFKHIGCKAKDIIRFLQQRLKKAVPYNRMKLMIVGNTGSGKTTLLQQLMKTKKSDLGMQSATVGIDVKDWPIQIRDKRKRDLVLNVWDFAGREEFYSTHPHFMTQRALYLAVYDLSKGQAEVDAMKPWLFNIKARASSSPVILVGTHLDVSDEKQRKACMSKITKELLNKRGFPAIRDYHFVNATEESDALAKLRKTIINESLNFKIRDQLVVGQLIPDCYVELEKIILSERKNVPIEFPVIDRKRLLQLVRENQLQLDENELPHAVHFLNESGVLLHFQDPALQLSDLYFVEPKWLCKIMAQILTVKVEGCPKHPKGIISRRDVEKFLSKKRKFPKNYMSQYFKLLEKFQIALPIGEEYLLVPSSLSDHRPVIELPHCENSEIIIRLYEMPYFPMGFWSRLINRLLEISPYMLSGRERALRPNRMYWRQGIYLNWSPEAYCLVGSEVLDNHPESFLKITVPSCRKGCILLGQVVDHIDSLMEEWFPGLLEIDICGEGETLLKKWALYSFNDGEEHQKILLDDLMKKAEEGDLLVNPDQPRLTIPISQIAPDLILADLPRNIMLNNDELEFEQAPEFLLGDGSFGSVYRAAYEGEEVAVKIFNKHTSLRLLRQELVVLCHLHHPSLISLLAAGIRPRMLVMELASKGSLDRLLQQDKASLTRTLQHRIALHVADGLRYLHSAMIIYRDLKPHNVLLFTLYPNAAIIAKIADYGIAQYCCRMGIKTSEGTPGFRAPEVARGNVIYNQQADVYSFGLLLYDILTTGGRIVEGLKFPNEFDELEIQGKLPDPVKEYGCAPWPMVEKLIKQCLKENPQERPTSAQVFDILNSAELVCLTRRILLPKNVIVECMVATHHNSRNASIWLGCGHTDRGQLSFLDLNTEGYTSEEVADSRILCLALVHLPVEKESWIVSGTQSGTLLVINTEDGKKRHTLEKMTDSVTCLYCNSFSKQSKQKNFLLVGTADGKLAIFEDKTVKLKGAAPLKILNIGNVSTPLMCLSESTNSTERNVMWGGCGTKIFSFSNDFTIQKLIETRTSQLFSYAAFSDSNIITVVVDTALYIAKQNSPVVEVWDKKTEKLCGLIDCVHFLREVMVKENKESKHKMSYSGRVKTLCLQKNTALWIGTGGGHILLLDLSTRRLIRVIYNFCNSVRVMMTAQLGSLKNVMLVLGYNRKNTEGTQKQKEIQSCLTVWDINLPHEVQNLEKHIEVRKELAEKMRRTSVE
# assaySummary: Recombinant cellular LRRK2 AlphaScreen assay
# Format: cell-based
# measurementContext: LRRK2 Ser935 phosphorylation, 60 minutes, read-out: recombinant cellcular LRRK2 alphaScreen assay (pIC50) (converted)
Field: IC50. Provide a value for each of the compounds that follow.
The answer is to be given in nM; state only the numeric part.

Returns the measured IC50 for the input compound. Input: CCOc1nc(Nc2cnn(C3CN(C)CCC3(F)F)c2C)nc2[nH]ccc12 (single isomer, unassigned)
0.631

Then this compound: CCOc1nc(Nc2cnn(C3CNCCC3(F)F)c2C)nc2[nH]ccc12 (single isomer, unassigned)
2.51

Then this compound: `CCOc1nc(Nc2cnn(CCN3CCO[C@H](C(F)F)C3)c2C)nc2[nH]ccc12`
31.6

Then this compound: `CCOc1nc(Nc2cnn(CCN3CCOCC3)c2C)nc2[nH]ccc12`
20

Then this compound: CCOc1nc(Nc2cnn(C3CN(C4COC4)CCC3(F)F)c2Cl)nc2[nH]ccc12 (single isomer, unassigned)
0.794

Then this compound: `CCOc1nc(Nc2cnn(CC(C)(C)O)c2C)nc2[nH]ccc12`
79.4

Then this compound: CCOc1nc(Nc2cnn(C3CC(N4CCOCC4)C3)c2C)nc2[nH]ccc12 (stereo not shown)
39.8

Then this compound: CCOc1nc(Nc2cnn(C3CN(C4COC4)CCO3)c2Cl)nc2[nH]ccc12 (single isomer, unassigned)
15.8

Then this compound: CCOc1nc(Nc2cnn(C3CCOCC3C)c2C)nc2[nH]ccc12 (single isomer, unassigned)
25.1

Then this compound: `CCOc1nc(Nc2cnn(C3CCOCC3)c2C2CC2)nc2[nH]ccc12`
63.1

Then this compound: CCOc1nc(Nc2cnn(C3CCN(C)C3)c2C)nc2[nH]ccc12 (single isomer, unassigned)
63.1

Then this compound: CCOc1nc(Nc2cnn(C3CC(O)C3)c2C)nc2[nH]ccc12 (stereo not shown)
12.6

Then this compound: CCOc1nc(Nc2cnn(C3CCN(C4COC4)CC3(F)F)c2Cl)nc2[nH]ccc12 (single isomer, unassigned)
5.01

---

Field: IC50. Provide a value for each of the molecules that follow.
# testedOn: LRRK2 Ser935 phosphorylation in SH-SY5Y cells over-expressing recombinant full length LRRK2 (Homo sapiens, UniProt Q5S007)
# Construct: A BacMam virus expressing full length recombinant LRRK2 was purchased from Invitrogen; host or cells: SH-SY5Y (BacMam transduction)
# assaySummary: Recombinant cellular LRRK2 AlphaScreen assay
# Type: cell-based
# measurementContext: LRRK2 Ser935 phosphorylation, 60 minutes, read-out: recombinant cellcular LRRK2 alphaScreen assay (pIC50) (converted)
The answer is to be given in nM; state only the numeric part.

Returns the measured IC50 for the input molecule. Input: CCOc1nc(Nc2cnn([C@H]3CCN(C4COC4)C[C@@H]3F)c2Cl)nc2[nH]ccc12 (single isomer, unassigned)
31.6

Then this molecule: `CCOc1nc(Nc2cnn([C@H]3C[C@H](F)CN(C4COC4)C3)c2Cl)nc2[nH]ccc12`
31.6

Then this molecule: CCOc1nc(Nc2cnn([C@@H]3CCN(C4COC4)C[C@H]3F)c2Cl)nc2[nH]ccc12 (single isomer, unassigned)
25.1
